The following binders are shown together with reported log10 koff values.
Biological target: T1, recombinant human ASM protein (human, UniProt P17405 47-630)
T1 construct: Recombinant human ASM in solution; also called acid sphingomyelinase (ASM) protein
T1 sequence: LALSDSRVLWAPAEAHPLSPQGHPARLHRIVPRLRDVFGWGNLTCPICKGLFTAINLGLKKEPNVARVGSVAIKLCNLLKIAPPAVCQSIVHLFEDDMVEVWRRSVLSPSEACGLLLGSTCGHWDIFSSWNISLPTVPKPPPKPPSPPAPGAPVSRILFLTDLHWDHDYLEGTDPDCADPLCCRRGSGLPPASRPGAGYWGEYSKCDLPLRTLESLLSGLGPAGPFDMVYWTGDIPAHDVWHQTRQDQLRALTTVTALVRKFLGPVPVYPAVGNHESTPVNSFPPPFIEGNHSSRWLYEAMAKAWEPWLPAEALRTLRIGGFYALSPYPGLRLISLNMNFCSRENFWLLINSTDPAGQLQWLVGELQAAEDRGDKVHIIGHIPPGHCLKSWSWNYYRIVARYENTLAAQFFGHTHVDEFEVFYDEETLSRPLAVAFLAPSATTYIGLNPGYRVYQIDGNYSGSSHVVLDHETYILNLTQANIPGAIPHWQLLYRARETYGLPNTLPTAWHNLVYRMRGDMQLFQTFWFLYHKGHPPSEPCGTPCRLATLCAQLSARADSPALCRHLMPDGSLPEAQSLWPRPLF
Experiment: BLI (Octet), antibody on AHC sensor
Value Type: log10 koff (log10 of the value in s⁻¹)

| Binder | log10 koff |
| --- | --- |
| #9104a-A7 (antibody, human IgG4 S228P, lambda, V domains shown, VH of #9104v-H31 with VL of #9104v-L20; full-length IgG, lambda) VH: EVQLLESGGGLVQPGGSLRLSCAASGFTFSNYYMSWVRQAPGKGLEWVSGVYYGSGTPYYADSVKGRFTISRDNSKNTLYLQMNSLRAEDTAVYYCARDTPGFDYWGQGTLVTVSS VL: QSVLTQPPSASGTPGQRVTISCTGSSSNIGNNAVNWYQQLPGTAPKLLIYYDMFRPGGVPDRFSGSKSGTSASLAISGLRSEDEADYYCGAWDYSLSAYVFGGGTKLTVLG | -5.09 |
| #9104a-D6 (antibody, human IgG4 S228P, lambda, V domains shown, VH of #9104v-H27 with VL of #9104v-L64; full-length IgG, lambda) VH: EVQLLESGGGLVQPGGSLRLSCAASGFTFSNYYMSWVRQAPGKGLEWVSGTYYDSGYVYYADSVKGRFTISRDNSKNTLYLQMNSLRAEDTAVYYCARDTPGFDYWGQGTLVTVSS VL: QSVLTQPPSASGTPGQRVTISCTGSSSNIGNNAVNWYQQLPGTAPKLLIYYDYFSHSGVPDRFSGSKSGTSASLAISGLRSEDEADYYCGAWDYSLSAYVFGGGTKLTVLG | -4.06 |
| #9104a-C6 (antibody, human IgG4 S228P, lambda, V domains shown, VH of #9104v-H27 with VL of #9104v-L23; full-length IgG, lambda) VH: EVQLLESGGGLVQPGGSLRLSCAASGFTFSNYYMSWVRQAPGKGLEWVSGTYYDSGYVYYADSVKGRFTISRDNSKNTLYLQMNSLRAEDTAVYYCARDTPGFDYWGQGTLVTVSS VL: QSVLTQPPSASGTPGQRVTISCTGSSSNIGNNAVNWYQQLPGTAPKLLIYYDQFRPSGVPDRFSGSKSGTSASLAISGLRSEDEADYYCGAWDYSLSAYVFGGGTKLTVLG | -3.96 |
| #9104a-A1 (antibody, human IgG4 S228P, lambda, V domains shown, VH of #9104v-H10 with VL of #9104v-L20; full-length IgG, lambda) VH: EVQLLESGGGLVQPGGSLRLSCAASGFTFSNYYMSWVRQAPGKGLEWVSGIYYGNGIPYYADSVKDRFTISRDNSKNTLYLQMNSLRAEDTAVYYCARDTPGFDYWGQGTLVTVSS VL: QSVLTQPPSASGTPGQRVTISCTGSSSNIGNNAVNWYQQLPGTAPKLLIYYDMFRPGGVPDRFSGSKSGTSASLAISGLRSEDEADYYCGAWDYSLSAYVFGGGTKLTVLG | -4.94 |
| #9104a-A4 (antibody, human IgG4 S228P, lambda, V domains shown, VH of #9104v-H17 with VL of #9104v-L20; full-length IgG, lambda) VH: EVQLLESGGGLVQPGGSLRLSCAASGFTFSNYYMSWVRRAPGKGLEWVSGIYYGSGTPYYAASVKGRFTISRDNSKNTLYLQMNSLRAEDTAVYYCARDTPGFDYWGQGTLVTVSS VL: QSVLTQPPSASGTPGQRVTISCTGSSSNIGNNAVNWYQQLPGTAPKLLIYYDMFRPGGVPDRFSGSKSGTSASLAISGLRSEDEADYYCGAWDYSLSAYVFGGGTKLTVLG | -4.45 |
| #9104a-D1 (antibody, human IgG4 S228P, lambda, V domains shown, VH of #9104v-H10 with VL of #9104v-L64; full-length IgG, lambda) VH: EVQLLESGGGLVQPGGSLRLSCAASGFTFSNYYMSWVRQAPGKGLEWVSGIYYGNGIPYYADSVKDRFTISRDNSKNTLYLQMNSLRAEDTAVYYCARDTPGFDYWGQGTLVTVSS VL: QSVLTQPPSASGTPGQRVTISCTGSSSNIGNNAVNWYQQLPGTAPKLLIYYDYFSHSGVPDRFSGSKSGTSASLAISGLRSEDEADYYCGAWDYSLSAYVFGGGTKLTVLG | -4.55 |
| #9104a-E5 (antibody, human IgG4 S228P, lambda, V domains shown, VH of #9104v-H19 with VL of #9104v-L65; full-length IgG, lambda) VH: EVQLLESGGGLVQPGGSLRLSCAASGFTFSNYYMSWVRQAPGKGLEWVSGIYYGSGVPYYADSVKGRFTISRDNSKNTLYLQMNSLRAEDTAVYYCARDTPGFDYWGQGTLVTVSS VL: QSVLTQPPSASGTPGQRVTISCTGSSSNIGNNAVNWYQQLPGTAPKLLIYYDYYQSSGVPDRFSGSKSGTSASLAISGLRSEDEADYYCGAWDYSLSAYVFGGGTKLTVLG | -4.20 |
| #9104a-E7 (antibody, human IgG4 S228P, lambda, V domains shown, VH of #9104v-H31 with VL of #9104v-L65; full-length IgG, lambda) VH: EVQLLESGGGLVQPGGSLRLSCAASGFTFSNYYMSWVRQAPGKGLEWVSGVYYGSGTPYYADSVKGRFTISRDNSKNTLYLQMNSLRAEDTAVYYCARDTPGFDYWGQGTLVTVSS VL: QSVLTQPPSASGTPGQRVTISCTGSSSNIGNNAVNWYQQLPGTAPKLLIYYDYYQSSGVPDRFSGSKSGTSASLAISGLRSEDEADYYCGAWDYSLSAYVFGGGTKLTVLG | -4.34 |
| #9104a-A3 (antibody, human IgG4 S228P, lambda, V domains shown, VH of #9104v-H13 with VL of #9104v-L20; full-length IgG, lambda) VH: EVQLLESGGGLVQPGGSLRLSCAASGFTFSNYYMSWVRQAPGKGLEWVSGIYYGSGIPYYANSVKGRFTISRDNSKNTLYLQMNSLRAEDTAVYYCARDTPGFDYWGQGTLVTVSS VL: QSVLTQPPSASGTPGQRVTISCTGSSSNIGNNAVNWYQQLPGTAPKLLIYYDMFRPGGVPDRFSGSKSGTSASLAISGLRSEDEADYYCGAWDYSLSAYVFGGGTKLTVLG | -5.26 |
